# systemUnderTest: Amyloid-beta precursor protein (Homo sapiens)
# assayDetails: Inhibition of gamma-secretase assessed as reduction of cell A-beta-40 level
pIC50: −log10 of the molar value.
measuredProperty: pIC50

CC[C@@H]1CCC[C@H](C2(OC(=O)N3CCN(C(C)(C)CO)CC3)CC2)N1S(=O)(=O)c1ccc(F)cc1 :: 7.60

a. CC[C@@H]1CCC[C@H](C2(OC(=O)N3CCN(CCO)[C@@H](C)C3)CC2)N1S(=O)(=O)c1ccc(Cl)cc1
b. CC[C@@H]1CCC[C@H](C2(OC(=O)N3CCC(CCO)(OC)CC3)CC2)N1S(=O)(=O)c1ccc(Cl)cc1
c. CC[C@@H]1CCC[C@H](C2(OC(=O)N3CCC(N4CCCCC4)CC3)CC2)N1S(=O)(=O)c1cc(F)cc(F)c1
QUERY: Which order do these items take when sorted by rising pIC50? List them. # the answer lists labels in the order requested
RESULT: c, b, a
(c: 6.84, b: 7.70, a: 8.00)

----------
# systemUnderTest: Amyloid-beta precursor protein (Homo sapiens, UniProt P05067)
# Sequence (P05067 whole entry): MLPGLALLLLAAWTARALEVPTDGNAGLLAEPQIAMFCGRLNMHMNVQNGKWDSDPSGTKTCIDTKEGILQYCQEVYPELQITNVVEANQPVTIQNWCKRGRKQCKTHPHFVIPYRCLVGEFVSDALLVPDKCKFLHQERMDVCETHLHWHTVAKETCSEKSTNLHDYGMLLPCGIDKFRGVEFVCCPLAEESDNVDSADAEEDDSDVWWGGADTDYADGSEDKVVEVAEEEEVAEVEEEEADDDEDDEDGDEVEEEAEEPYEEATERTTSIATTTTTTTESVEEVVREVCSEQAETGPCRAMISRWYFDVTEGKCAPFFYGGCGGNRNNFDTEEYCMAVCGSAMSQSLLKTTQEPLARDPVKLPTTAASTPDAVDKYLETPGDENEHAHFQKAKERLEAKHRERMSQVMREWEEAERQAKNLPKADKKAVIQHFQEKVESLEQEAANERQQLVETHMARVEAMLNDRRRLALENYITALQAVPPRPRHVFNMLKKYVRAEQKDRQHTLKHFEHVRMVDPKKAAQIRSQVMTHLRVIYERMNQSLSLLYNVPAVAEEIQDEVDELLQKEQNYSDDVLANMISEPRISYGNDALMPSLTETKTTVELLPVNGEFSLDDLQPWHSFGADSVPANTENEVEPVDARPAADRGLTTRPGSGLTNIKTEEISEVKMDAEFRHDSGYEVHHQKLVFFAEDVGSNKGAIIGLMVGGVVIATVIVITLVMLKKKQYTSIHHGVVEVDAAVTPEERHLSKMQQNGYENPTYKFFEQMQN
# assayDetails: Inhibition of gamma-secretase assessed as reduction of membrane A-beta-40 level
pIC50: −log10 of the molar value.
measuredProperty: pIC50

CC[C@@H]1CCC[C@H](C2(OC(=O)N3CCN(CCO)[C@@H](C)C3)CC2)N1S(=O)(=O)c1ccc(Cl)cc1 :: 7.89

a. CC[C@@H]1CCC[C@H](C2(OC(=O)N3CCC(CCO)(OC)CC3)CC2)N1S(=O)(=O)c1ccc(Cl)cc1
b. CC[C@@H]1CCC[C@H](C2(OC(=O)N3CCC(N4CCCCC4)CC3)CC2)N1S(=O)(=O)c1cc(F)cc(F)c1
c. O=C(OC1([C@H]2CCC[C@@H](c3cc(F)cc(F)c3)N2S(=O)(=O)c2ccc(Cl)cc2)CC1)N1CCC(N2CCCCC2)CC1
QUERY: Ordering criterion: pIC50; begin with the maximum. # the answer lists labels in the order requested
RESULT: c, a, b
(c: 9.52, a: 8.05, b: 7.54)

The reported measurements were obtained from BindingDB's records for doi:10.1016/j.bmcl.2007.08.013.
